# Test system: HeLa human cervical tumour cells
# method: Proliferation Assay with HeLa cells
# Type: cell-based
# recorded conditions: 96 h, 4 days, crystal violet
pIC50: −log10 of the molar value.
endpoint: pIC50

In [3]: df
Out[3]:
                                   compound  endpoint   value
0  COc1ccc(Oc2cc(NCC3COC3)c3ncc(-c4ccc(C(=O)NC5CC5)c(C)c4)n3n2)cc1F [Compound A26]     pIC50  > 7.60
1  COc1ccc(Oc2cc(NCC3CCOCC3)c3ncc(-c4ccc(C(=O)NC5CC5)c(C)c4)n3n2)c(F)c1F [Compound A28]     pIC50  > 7.60

Cited source: patent US20160175306A1
